- System: HeLa Kyoto
- assay_summary: melting temperature (median over replicates), in situ; higher = more thermally stable
- reported_conditions: cell cycle stage: mitosis
# melting temperature values compiled below

Query: Please give the measured melting temperature for this sequence: MSSCSRVALVTGANRGIGLAIARELCRQFSGDVVLTARDVARGQAAVQQLQAEGLSPRFHQLDIDDLQSIRALRDFLRKEYGGLNVLVNNAAVAFKSDDPMPFDIKAEMTLKTNFFATRNMCNELLPIMKPHGRVVNISSLQCLRAFENCSEDLQERFHSETLTEGDLVDLMKKFVEDTKNEVHEREGWPNSPYGVSKLGVTVLSRILARRLDEKRKADRILVNACCPGPVKTDMDGKDSIRTVEEGAETPVYLALLPPDATEPQGQLVHDKVVQNW [CBR3]
Response: 52.4 °C

Query: Please give the measured melting temperature for this sequence: MASPSRRLQTKPVITCFKSVLLIYTFIFWITGVILLAVGIWGKVSLENYFSLLNEKATNVPFVLIATGTVIILLGTFGCFATCRASAWMLKLYAMFLTLVFLVELVAAIVGFVFRHEIKNSFKNNYEKALKQYNSTGDYRSHAVDKIQNTLHCCGVTDYRDWTDTNYYSEKGFPKSCCKLEDCTPQRDADKVNNEGCFIKVMTIIESEMGVVAGISFGVACFQLIGIFLAYCLSRAITNNQYEIV [TSPAN6]
Response: 55.8 °C

Query: Please give the measured melting temperature for this sequence: MAQTPAFDKPKVELHVHLDGSIKPETILYYGRRRGIALPANTAEGLLNVIGMDKPLTLPDFLAKFDYYMPAIAGCREAIKRIAYEFVEMKAKEGVVYVEVRYSPHLLANSKVEPIPWNQAEGDLTPDEVVALVGQGLQEGERDFGVKARSILCCMRHQPNWSPKVVELCKKYQQQTVVAIDLAGDETIPGSSLLPGHVQAYQEAVKSGIHRTVHAGEVGSAEVVKEAVDILKTERLGHGYHTLEDQALYNRLRQENMHFEICPWSSYLTGAWKPDTEHAVIRLKNDQANYSLNTDDPLIFKSTLDTDYQMTKRDMGFTEEEFKRLNINAAKSSFLPEDEKRELLDLLYKAYGMPPSASAGQNL [ADA]
Response: 59.2 °C

---

- Test system: HeLa Kyoto
- assay_summary: solubility in G1/S (NP-40 vs SDS abundance) (log2 ratio); higher = more soluble
- reported_conditions: cell cycle stage: G1/S
experimental_readout: solubility in G1/S (log2)
Just the number, please, no unit after it.

query_sequence	solubility in G1/S (log2)
MSTAMNFGTKSFQPRPPDKGSFPLDHLGECKSFKEKFMKCLHNNNFENALCRKESKEYLECRMERKLMLQEPLEKLGFGDLTSGKSEAKK [COX19]	0.00408
MKDVDNLKSIKEEWVCETGSDNQPLGNNQQSNCEYFVDSLFEEAQKVSSKCVSPAEQKKQVDVNIKLWKNGFTVNDDFRSYSDGASQQFLNSIKKGELPSELQGIFDKEEVDVKVEDKKNEICLSTKPVFQPFSGQGHRLGSATPKIVSKAKNIEVENKNNLSAVPLNNLEPITNIQIWLANGKRIVQKFNITHRVSHIKDFIEKYQGSQRSPPFSLATALPVLRLLDETLTLEEADLQNAVIIQRLQKTASFRELSEH [UBXN2A]	0.0566
MEAVATATAAKEPDKGCIEPGPGHWGELSRTPVPSKPQDKVEAAEATPVALDSDTSGAENAAVSAMLHAVAASRLPVCSQQQGEPDLTEHEKVAILAQLYHEKPLVFLERFRTGLREEHLACFGHVRGDHRADFYCAEVARQGTARPRTLRTRLRNRRYAALRELIQGGEYFSDEQMRFRAPLLYEQYIGQYLTQEELSARTPTHQPPKPGSPGRPACPLSNLLLQSYEERELQQRLLQQQEEEEACLEEEEEEEDSDEEDQRSGKDSEAWVPDSEERLILREEFTSRMHQRFLDGKDGDFDYSTVDDNPDFDNLDIVARDEEERYFDEEEPEDAPSPELDGD [CCDC97]	0.105
MAAARPSLGRVLPGSSVLFLCDMQEKFRHNIAYFPQIVSVAARMLKVARLLEVPVMLTEQYPQGLGPTVPELGTEGLRPLAKTCFSMVPALQQELDSRPQLRSVLLCGIEAQACILNTTLDLLDRGLQVHVVVDACSSRSQVDRLVALARMRQSGAFLSTSEGLILQLVGDAVHPQFKEIQKLIKEPAPDSGLLGLFQGQNSLLH [ISOC2]	0.188
MKGLYFQQSSTDEEITFVFQEKEDLPVTEDNFVKLQVKACALSQINTKLLAEMKMKKDLFPVGREIAGIVLDVGSKVSFFQPDDEVVGILPLDSEDPGLCEVVRVHEHYLVHKPEKVTWTEAAGSIRDGVRAYTALHYLSHLSPGKSVLIMDGASAFGTIAIQLAHHRGAKVISTACSLEDKQCLERFRPPIARVIDVSNGKVHVAESCLEETGGLGVDIVLDAGVRLYSKDDEPAVKLQLLPHKHDIITLLGVGGHWVTTEENLQLDPPDSHCLFLKGATLAFLNDEVWNLSNVQQGKYLCILKDVMEKLSTGVFRPQLDEPIPLYEAKVSMEAVQKNQGRKKQVVQF [CRYZL1]	0.11

Turning to the following sequence.
Query: Short answer please: solubility in G1/S (log2), HeLa Kyoto, entry MDKQNSQMNASHPETNLPVGYPPQYPPTAFQGPPGYSGYPGPQVSYPPPPAGHSGPGPAGFPVPNQPVYNQPVYNQPVGAAGVPWMPAPQPPLNCPPGLEYLSQIDQILIHQQIELLEVLTGFETNNKYEIKNSFGQRVYFAAEDTDCCTRNCCGPSRPFTLRIIDNMGQEVITLERPLRCSSCCCPCCLQEIEIQAPPGVPIGYVIQTWHPCLPKFTIQNEKREDVLKISGPCVVCSCCGDVDFEIKSLDEQCVVGKISKHWTGILREAFTDADNFGIQFPLDLDVKMKAVMIGACFLIDFMFFESTGSQEQKSGVW [PLSCR1]
Response: 0.1

---

- Test system: HeLa Kyoto
- assay_summary: melting temperature (median over replicates), in situ; higher = more thermally stable
- reported_conditions: cell cycle stage: G1/S
experimental_readout: melting temperature (°C)
The reply should be a number in °C, with the unit left off.

query_sequence	experimental_readout	test_value
MAERPEDLNLPNAVITRIIKEALPDGVNISKEARSAISRAASVFVLYATSCANNFAMKGKRKTLNASDVLSAMEEMEFQRFVTPLKEALEAYRREQKGKKEASEQKKKDKDKKTDSEEQDKSRDEDNDEDEERLEEEEQNEEEEVDN [POLE3]	melting temperature	49.2

Query: Please give the measured melting temperature for this sequence: MLVSGRRRLLTVLLQAQKWPFQPSRDMRLVQFRAPHLVGPHLGLETGNGGGVINLNAFDPTLPKTMTQFLEQGEATLSVARRALAAQLPVLPRSEVTFLAPVTRPDKVVCVGMNYVDHCKEQNVPVPKEPIIFSKFASSIVGPYDEVVLPPQSQEVDWEVELAVVIGKKGKHIKATDAMAHVAGFTVAHDVSARDWQMRRNGKQWLLGKTFDTFCPLGPALVTKDSVADPHNLKICCRVNGEVVQSGNTNQMVFKTEDLIAWVSQFVTFYPGDVILTGTPPGVGVFRKPPVFLKKGDEVQCEIEELGVIINKVV [FAHD2A]
Response: 55.7

---

- System: HeLa Kyoto
- assay_summary: thermal stability score vs G1/S (z-score of summed log2 fold changes over temperatures); higher = more thermally stable than in G1/S
- reported_conditions: cell cycle stage: mitosis
experimental_readout: thermal stability score
Just the number, please, no unit after it.

Please review the entries below; each comes with its answer.
substance	experimental_target	thermal stability score
MADQPKPISPLKNLLAGGFGGVCLVFVGHPLDTVKVRLQTQPPSLPGQPPMYSGTFDCFRKTLFREGITGLYRGMAAPIIGVTPMFAVCFFGFGLGKKLQQKHPEDVLSYPQLFAAGMLSGVFTTGIMTPGERIKCLLQIQASSGESKYTGTLDCAKKLYQEFGIRGIYKGTVLTLMRDVPASGMYFMTYEWLKNIFTPEGKRVSELSAPRILVAGGIAGIFNWAVAIPPDVLKSRFQTAPPGKYPNGFRDVLRELIRDEGVTSLYKGFNAVMIRAFPANAACFLGFEVAMKFLNWATPNL [SLC25A20]	HeLa Kyoto	-0.401
MARACLQAVKYLMFAFNLLFWLGGCGVLGVGIWLAATQGSFATLSSSFPSLSAANLLIITGAFVMAIGFVGCLGAIKENKCLLLTFFLLLLLVFLLEATIAILFFAYTDKIDRYAQQDLKKGLHLYGTQGNVGLTNAWSIIQTDFRCCGVSNYTDWFEVYNATRVPDSCCLEFSESCGLHAPGTWWKAPCYETVKVWLQENLLAVGIFGLCTALVQILGLTFAMTMYCQVVKADTYCA [TSPAN4]	HeLa Kyoto	1.16e-18
MAYQLYRNTTLGNSLQESLDELIQSQQITPQLALQVLLQFDKAINAALAQRVRNRVNFRGSLNTYRFCDNVWTFVLNDVEFREVTELIKVDKVKIVACDGKNTGSNTTE [GTF2A2]	HeLa Kyoto	0.557

Turning to the following substance.
Query: Short answer please: thermal stability score, HeLa Kyoto, entry `GORASP1`
Response: 0.301
